- Method Notes: Estimated volume of distribution, unbound volume of distribution and drug efficiency from biomimetic HPLC data
- Measurement Setup: standard 6 min protocol data
Measured Endpoint: Vd

>>> measured_value("CCN(CCO)CCCC(C)Nc1ccnc2cc(Cl)ccc12 (centres unmarked) [HCQ, hydroxy-chloroquine]")
"5.1 L/kg"
>>> measured_value("CCN(CC)CCCC(C)Nc1ccnc2cc(Cl)ccc12 (centres unmarked)")
"6.9 L/kg"

Where do the numbers come from? From paper PMC8920107.
